These data points were gathered from patent US9745299B2.

# Tgt: CDK2/CyclinE (Homo sapiens)
# Construct: purchased Millipore, Billerica, Mass., USA
# Assay notes: ADP-Glo Kinase Assay, CDK2/CyclinE
# Assay type: biochemical
# Condition summary: read-out: % inhibition at 1 μM CDK2/CyclinE
Reported endpoint: inhibition at 1 µM (%)

# count of solved cases: 2
INSERT INTO results (compound, unit_string, measured) VALUES
  ('O[C@H]1CCN(c2nc3c(Br)c(Br)c(Br)c4c3n2CCC4)C1', '%', 4),
  ('NC1CCCN(c2nc3c(Br)c(Br)c(Br)c4c3n2CCC4)CC1 (centres unmarked)', '%', 6);

1 = CC1CN(c2nc3c(Br)c(Br)c(Br)c4c3n2CCC4)CCN1 (centres unmarked)
2 = Brc1c(Br)c2c3c(nc(NC4CCNC4)n3CCC2)c1Br (centres unmarked)
3 = O[C@@H]1CCN(c2nc3c(Br)c(Br)c(Br)c4c3n2CCC4)C1
Prompt: Task for the reader: rank each entry by its inhibition at 1 µM, from the minimum upward. Kindly provide the labels arranged according to the requested ordering.
Completion: 1, 3, 2

###

# Tgt: CDK8/CyclinC (Homo sapiens, UniProt P49336)
# Construct: purchased ProQinase, Freiburg, Germany
# Sequence (P49336 whole entry): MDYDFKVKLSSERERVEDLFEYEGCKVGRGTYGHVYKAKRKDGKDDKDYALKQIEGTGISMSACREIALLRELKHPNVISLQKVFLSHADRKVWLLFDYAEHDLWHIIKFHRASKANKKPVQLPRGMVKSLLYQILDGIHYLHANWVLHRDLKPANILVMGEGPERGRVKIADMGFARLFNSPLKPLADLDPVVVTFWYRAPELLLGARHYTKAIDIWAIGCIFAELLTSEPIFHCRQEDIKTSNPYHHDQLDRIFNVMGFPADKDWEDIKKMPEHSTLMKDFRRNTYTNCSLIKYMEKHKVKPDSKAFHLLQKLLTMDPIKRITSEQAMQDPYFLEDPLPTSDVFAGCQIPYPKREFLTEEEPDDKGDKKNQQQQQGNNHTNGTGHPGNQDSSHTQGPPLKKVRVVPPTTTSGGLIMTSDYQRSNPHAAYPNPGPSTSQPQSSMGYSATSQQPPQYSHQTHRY
# Sequence (P24863 whole entry partner): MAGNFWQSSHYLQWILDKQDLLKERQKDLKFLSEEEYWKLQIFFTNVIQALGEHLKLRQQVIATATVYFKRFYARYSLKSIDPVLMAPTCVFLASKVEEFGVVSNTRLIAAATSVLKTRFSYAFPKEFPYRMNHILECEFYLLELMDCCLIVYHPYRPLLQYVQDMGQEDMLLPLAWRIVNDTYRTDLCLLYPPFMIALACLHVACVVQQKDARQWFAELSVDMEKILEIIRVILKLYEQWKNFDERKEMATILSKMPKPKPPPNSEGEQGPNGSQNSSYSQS
# Assay notes: ADP-Glo Kinase Assay, CDK8/CyclinC; also: ATP at apparent Km (53 µM)
# Assay type: biochemical
# Condition summary: read-out: % inhibition at 1 μM CDK8/CyclinC
# Method: Testing of the compounds described in this invention was carried out using the ADP-Glo™ Kinase Assay from Promega Corporation (Madison, Wis., USA). The ADP-Glo™ Kinase Assay is a luminescent ADP detection assay to measure kinase activity by quantifying the amount of ADP produced during a kinase reaction. The kinase assay is performed in kinase assay buffer (5 mM MOPS, pH 7.5, 5 mM MgCl2, 0.4 mM EDTA, 1.5 mM DTT). […]
Reported endpoint: inhibition at 1 µM (%)

INSERT INTO assay_data (compound, tgt, reported_endpoint, measured) VALUES
  ('Cc1c(Br)c(Br)c2nc(N3CCNCC3)n3c2c1CCC3', 'CDK8/CyclinC (Homo sapiens, UniProt P49336)', 'inhibition at 1 µM', 54),
  ('NCC1CCCN1c1nc2c(Br)c(Br)c(Br)c3c2n1CCC3 (centres unmarked)', 'CDK8/CyclinC (Homo sapiens, UniProt P49336)', 'inhibition at 1 µM', 67),
  ('O=[N+]([O-])c1c(Br)c(Br)c2c3c1nc(N1CCNCC1)n3CCC2', 'CDK8/CyclinC (Homo sapiens, UniProt P49336)', 'inhibition at 1 µM', 71),
  ('CC1(C)CN(c2nc3c(Br)c(Br)c(Br)c4c3n2CCC4)CCN1', 'CDK8/CyclinC (Homo sapiens, UniProt P49336)', 'inhibition at 1 µM', 58),
  ('C[C@H]1CN(c2nc3c(Br)c(Br)c(Br)c4c3n2CCC4)CCN1', 'CDK8/CyclinC (Homo sapiens, UniProt P49336)', 'inhibition at 1 µM', 96),
  ('Brc1c(Br)c2c3c(nc(NC4CCCCC4)n3CCC2)c1Br', 'CDK8/CyclinC (Homo sapiens, UniProt P49336)', 'inhibition at 1 µM', 64),
  ('CN1CCC(c2nc3c(Br)c(Br)c(Br)c4c3n2CCC4)CC1', 'CDK8/CyclinC (Homo sapiens, UniProt P49336)', 'inhibition at 1 µM', 88),
  ('Cc1c(Br)c(Br)c2c3c1nc(N1CCNCC1)n3CCC2', 'CDK8/CyclinC (Homo sapiens, UniProt P49336)', 'inhibition at 1 µM', 76);
